// data source = patent US9309242B2

Assign BAF3-FGFR3 (MIN IL3) pIC50 to each entry below.
SYSTEM: Ba/F3-FGFR3-transfected cells (Homo sapiens)
Construct: BAF3-FGFR3 (MIN IL3) pIC50; other: minus IL3
Sequence (P22607 whole entry, change not shown): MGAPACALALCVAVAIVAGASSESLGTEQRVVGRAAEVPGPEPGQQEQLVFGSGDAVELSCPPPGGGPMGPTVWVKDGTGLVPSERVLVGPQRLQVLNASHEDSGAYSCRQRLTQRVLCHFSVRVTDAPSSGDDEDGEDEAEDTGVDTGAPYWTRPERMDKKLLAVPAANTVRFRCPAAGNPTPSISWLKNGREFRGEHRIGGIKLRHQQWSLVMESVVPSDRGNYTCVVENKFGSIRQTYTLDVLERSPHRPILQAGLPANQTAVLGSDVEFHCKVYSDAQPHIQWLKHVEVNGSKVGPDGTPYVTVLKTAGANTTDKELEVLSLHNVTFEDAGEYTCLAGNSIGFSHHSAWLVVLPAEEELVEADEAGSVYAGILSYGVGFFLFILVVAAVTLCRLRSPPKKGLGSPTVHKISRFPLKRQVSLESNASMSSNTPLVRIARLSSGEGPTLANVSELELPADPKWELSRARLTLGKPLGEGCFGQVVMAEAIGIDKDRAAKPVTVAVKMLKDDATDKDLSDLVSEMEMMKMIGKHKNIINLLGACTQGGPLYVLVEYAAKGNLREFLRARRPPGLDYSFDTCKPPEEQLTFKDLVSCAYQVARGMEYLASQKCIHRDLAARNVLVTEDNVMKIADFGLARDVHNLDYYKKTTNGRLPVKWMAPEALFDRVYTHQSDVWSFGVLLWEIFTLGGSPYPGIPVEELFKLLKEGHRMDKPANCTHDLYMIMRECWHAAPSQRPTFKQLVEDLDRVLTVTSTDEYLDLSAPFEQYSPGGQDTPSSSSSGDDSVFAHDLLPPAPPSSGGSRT
TEST_METHOD_NOTES: Ba/F3-FGFR3 (minus IL3) cellular proliferation assay, Alamar Blue
Type: cell-based
Kindly provide the number alone.

Qu. Reported BAF3-FGFR3 (MIN IL3) pIC50 for CNCCN(c1ccc2ncc(-c3cnn(C)c3)nc2n1)c1c(F)c(O)cc(OC)c1F [Compound 122] : what is it?
Ans. 6.09

Qu. Requested field: BAF3-FGFR3 (MIN IL3) pIC50. Item: COc1cc(OC)c(F)c(N(Cc2noc(C)n2)c2ccc3ncc(-c4cnn(C)c4)nc3n2)c1 [Compound 297]
Ans. 7.69

Qu. Value lookup for BAF3-FGFR3 (MIN IL3) pIC50; key = COc1cc(OC)c(F)c(/N=c2\ccc3ncc(-c4cnn(C)c4)nc3n2CCN(C2COC2)C2COC2)c1F [Compound 164]
Ans. 7.89

====

Would you mind telling me the reported IC50 of each entry?
SYSTEM: KDR (h) (Homo sapiens)
Sequence (P35968 20-1356): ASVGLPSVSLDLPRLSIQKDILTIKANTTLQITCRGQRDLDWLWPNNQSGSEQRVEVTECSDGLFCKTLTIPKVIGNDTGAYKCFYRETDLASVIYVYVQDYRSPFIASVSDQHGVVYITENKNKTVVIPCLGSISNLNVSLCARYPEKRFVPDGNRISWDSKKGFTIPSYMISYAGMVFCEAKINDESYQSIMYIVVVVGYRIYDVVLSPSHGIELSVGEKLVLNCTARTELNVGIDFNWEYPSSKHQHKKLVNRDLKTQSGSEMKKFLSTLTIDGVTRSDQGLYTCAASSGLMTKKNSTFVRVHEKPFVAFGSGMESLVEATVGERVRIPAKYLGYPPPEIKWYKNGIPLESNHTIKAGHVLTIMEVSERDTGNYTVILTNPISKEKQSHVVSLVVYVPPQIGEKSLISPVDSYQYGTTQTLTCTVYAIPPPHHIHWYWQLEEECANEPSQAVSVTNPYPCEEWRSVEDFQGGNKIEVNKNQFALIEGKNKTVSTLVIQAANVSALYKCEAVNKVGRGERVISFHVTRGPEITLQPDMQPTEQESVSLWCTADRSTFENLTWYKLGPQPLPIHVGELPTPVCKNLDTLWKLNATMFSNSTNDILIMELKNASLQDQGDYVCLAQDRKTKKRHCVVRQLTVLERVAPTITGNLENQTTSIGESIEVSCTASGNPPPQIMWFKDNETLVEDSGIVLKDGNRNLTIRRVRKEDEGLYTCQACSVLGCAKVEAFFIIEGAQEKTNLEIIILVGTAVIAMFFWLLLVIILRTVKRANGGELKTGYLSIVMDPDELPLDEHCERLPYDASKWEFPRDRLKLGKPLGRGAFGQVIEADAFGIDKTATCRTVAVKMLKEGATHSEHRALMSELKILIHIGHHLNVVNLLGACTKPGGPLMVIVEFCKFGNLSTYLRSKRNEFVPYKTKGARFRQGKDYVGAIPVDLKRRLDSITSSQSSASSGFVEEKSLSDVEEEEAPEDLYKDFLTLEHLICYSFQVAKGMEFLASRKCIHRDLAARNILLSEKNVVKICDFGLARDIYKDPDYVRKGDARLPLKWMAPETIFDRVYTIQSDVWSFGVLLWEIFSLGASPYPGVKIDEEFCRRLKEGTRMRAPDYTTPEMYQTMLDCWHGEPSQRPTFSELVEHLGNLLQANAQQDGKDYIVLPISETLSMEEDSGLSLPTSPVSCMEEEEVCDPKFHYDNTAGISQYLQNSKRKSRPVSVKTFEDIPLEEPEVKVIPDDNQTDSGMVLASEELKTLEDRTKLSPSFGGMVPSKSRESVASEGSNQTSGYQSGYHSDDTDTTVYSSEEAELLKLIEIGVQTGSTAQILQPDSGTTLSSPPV
TEST_METHOD_NOTES: KDR (VEGFR2) (enzymatic assay), TR-FRET
Type: biochemical
CONDITION_CONTEXT: read-out: VEGFR 2 (KDR) pIC50 (converted)
Units required after the number.

Qu. What value of measured IC50 is listed for COc1cc(OC)cc(N(Cc2noc(C)n2)c2ccc3ncc(-c4cnn(C)c4)nc3n2)c1 ?
Ans. 45.7 nM

Qu. Can you look up the measured IC50 of COc1cc(/N=c2\ccc3ncc(-c4cnn(C)c4)nc3n2CC2CCC(=O)N2)cc(OC)c1 (stereo not drawn) for me?
Ans. 20 nM

Qu. What value of IC50 has been recorded for this entry: CNCCN(c1ccc2ncc(-c3cnn(C)c3)nc2n1)c1c(F)c(O)cc(OC)c1F
Ans. 50.1 nM

Qu. Entry COc1cc(OC)c(F)c(N(CCNC2COC2)c2ccc3ncc(-c4cnn(C)c4)nc3n2)c1F (single isomer, unassigned) : reported IC50 = ?
Ans. 8.91 nM

Qu. Entry COc1cc(OC)cc(N(CC2CC(O)C(=O)N2)c2ccc3ncc(-c4cnn(C)c4)nc3n2)c1 (stereo not drawn) has what IC50?
Ans. 174 nM

Qu. Entry COc1cc(/N=c2\ccc3ncc(-c4cnn(C)c4)nc3n2CCCN2CCCC2=O)cc(OC)c1 has what IC50?
Ans. 5.89 nM

Qu. Endpoint output: IC50 of COc1cc(OC)cc(N(CCN2CCCC2=O)c2ccc3ncc(-c4cnn(C)c4)nc3n2)c1 . Value?
Ans. 126 nM

Qu. IC50 lookup needed for COc1cc(OC)cc(N(Cc2ncc[nH]2)c2ccc3ncc(-c4ccccc4)nc3n2)c1 , thanks.
Ans. 15.1 nM

Qu. I have this compound here, COc1cc(/N=c2\ccc3ncc(-c4cnn(C)c4)nc3n2CC2CC(O)C(=O)N2)cc(OC)c1 (stereo not drawn) , and I need its recorded IC50.
Ans. 10 nM

Qu. Fill in the blank: the reported IC50 of COc1cc(/N=c2\ccc3ncc(-c4cnn(C)c4)nc3n2CC2CCC(=O)N2C)c(F)c(OC)c1 (stereo not drawn) [Compound 160] is ____.
Ans. 7.24 nM

Qu. Entry COc1cc(OC)c(F)c(N(Cc2ncc[nH]2)c2ccc3ncc(-c4cnn(C5COC5)c4)nc3n2)c1 : reported IC50 = ?
Ans. 12 nM

Qu. Value lookup for IC50; key = COc1cc(/N=c2\ccc3ncc(-c4cnn(C)c4)nc3n2CC(C)(C)O)cc(OC)c1
Ans. 15.1 nM

Qu. Could you share which IC50 value was measured for COc1cc(/N=c2\ccc3ncc(-c4cnn(C)c4)nc3n2Cc2cnn(C)c2)c(F)c(OC)c1 ?
Ans. 3.98 nM

Qu. Could you tell me which IC50 is on file for CCn1cc(-c2cnc3ccc(N(Cc4ncc[nH]4)c4cc(OC)cc(OC)c4F)nc3n2)cn1 ?
Ans. 7.08 nM

Qu. Recorded IC50 for COc1cc(OC)cc(N(Cc2c[nH]nn2)c2ccc3ncc(-c4cnn(C)c4)nc3n2)c1 , please?
Ans. 26.3 nM
